Target: T1, human amylin 3(a) receptor (human calcitonin receptor plus RAMP-3) (human, UniProt P30988 25-474; O60896 24-148, limits assumed)
T1 sequence (looked up) 1: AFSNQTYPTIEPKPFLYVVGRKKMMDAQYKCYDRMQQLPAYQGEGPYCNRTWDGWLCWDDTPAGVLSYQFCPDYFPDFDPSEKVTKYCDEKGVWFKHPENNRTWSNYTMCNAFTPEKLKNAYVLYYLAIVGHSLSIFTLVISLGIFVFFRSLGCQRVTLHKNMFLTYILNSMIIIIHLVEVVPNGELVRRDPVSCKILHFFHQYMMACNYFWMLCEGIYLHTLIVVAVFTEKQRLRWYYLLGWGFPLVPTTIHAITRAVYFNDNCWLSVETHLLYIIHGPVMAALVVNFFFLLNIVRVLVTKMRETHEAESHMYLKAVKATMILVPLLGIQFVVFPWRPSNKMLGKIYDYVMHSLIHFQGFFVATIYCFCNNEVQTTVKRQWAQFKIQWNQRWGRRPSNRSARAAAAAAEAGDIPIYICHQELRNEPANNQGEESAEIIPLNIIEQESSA
T1 sequence (looked up) 2: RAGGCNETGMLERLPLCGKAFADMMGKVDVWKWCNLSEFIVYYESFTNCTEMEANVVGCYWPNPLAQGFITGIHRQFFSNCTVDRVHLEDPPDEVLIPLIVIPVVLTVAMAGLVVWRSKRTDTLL
Assay: cell-based or functional assay
Numbered stars: 1 amine (or outer) side, 2 acyl side, 3 side chain; on linkers, the order of the positions; unused ones are H or OH. Bridge positions count the residues as written; N and C are the ends. Side chains are listed from the residue outwards. Ends that are not written are not given here. * marks the point of attachment. C20 diacid = O=C(O)CCCCCCCCCCCCCCCCCCC(=O)*; γGlu = O=C(O)[C@H](CCC(=O)[*:2])N[*:1]
property-measured: hAmylin-R funct. EC50 (nM)
State just the number; it will be interpreted in nM.

Solved entries (count: 2):
binder	observed-value
K([γGlu-C20 diacid])CNTATCATQRLAEFLRHSSPNFGAIPSSTNVGPHTY-NH2 (disulfide 2-7)	0.101
K([γGlu-γGlu-C20 diacid])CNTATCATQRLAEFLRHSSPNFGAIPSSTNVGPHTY-NH2 (disulfide 2-7 (inferred))	0.172

Okay, now this binder:
I have this binder here, K([γGlu-γGlu-C20 diacid])CNTATCATQRLAEFLRHSSPNFGAIPSSTNVGSNTP-NH2 (disulfide 2-7 (inferred), also called compound 13) , and I need its recorded hAmylin-R funct. EC50.
0.213

Value source: patent US20140087995A1
